protocol description: 8-day repeat-dose study, tolerability (blood chemistry, hematology, adverse events) in tumor-bearing dogs
Type: in vivo, dog
condition summary: Dog 3; Post: 30 min after last injection on day 8; 10 mg s.c. once daily for 8 days
Where a SMILES comes first, the peptide text is derived from it. [ ]: non-standard residue; d: D form. Hyp = O=C(O)[C@@H]1C[C@@H](O)CN1
readout type: Cholesterol
Units required after the number.

Q) // query Cholesterol value for entry CC(C)[C@@H]1NC(=O)[C@@H]2C[C@@H](O)CN2C(=O)[C@H]([C@@H](C)O)NC(=O)[C@H](CCCCN)NC(=O)[C@H](CCC(=O)O)NC(=O)[C@H](CC(N)=O)NC(=O)CNC(=O)[C@@H]2C[C@@H](O)CN2C(=O)[C@H](CC(N)=O)NC1=O [AFPep] (cyclo(EKT[Hyp]VN[Hyp]GN))
A) 273 mg/dL

---

protocol description: 8-day repeat-dose study, AFPep blood levels in tumor-bearing dogs
Format: in vivo, dog
condition summary: female, Poodle mix, dog, blood, sc, 10 mg, Poodle mix, 5.80 kg; 30 min after dose; 10 mg s.c. once daily for 8 days; single animal; read-out: AFPep blood level, Day 8 Post-Treatment
Where a SMILES comes first, the peptide text is derived from it. [ ]: non-standard residue; d: D form. Hyp = O=C(O)[C@@H]1C[C@@H](O)CN1
readout type: level at 0.5 h (ng/mL)
Use ng/mL as the unit, but write only the number.

Q) // query level at 0.5 h value for entry CC(C)[C@@H]1NC(=O)[C@@H]2C[C@@H](O)CN2C(=O)[C@H]([C@@H](C)O)NC(=O)[C@H](CCCCN)NC(=O)[C@H](CCC(=O)O)NC(=O)[C@H](CC(N)=O)NC(=O)CNC(=O)[C@@H]2C[C@@H](O)CN2C(=O)[C@H](CC(N)=O)NC1=O [AFPep] (cyclo(EKT[Hyp]VN[Hyp]GN))
A) 5000

---

protocol description: 8-day repeat-dose study, tolerability (blood chemistry, hematology, adverse events) in tumor-bearing dogs
Format: in vivo, dog
condition summary: Dog 2; Post: 30 min after last injection on day 8; 10 mg s.c. once daily for 8 days
Where a SMILES comes first, the peptide text is derived from it. [ ]: non-standard residue; d: D form. Hyp = O=C(O)[C@@H]1C[C@@H](O)CN1
readout type: Total Protein (g/dL)
Use g/dL as the unit, but write only the number.

Q) // query Total Protein value for entry CC(C)[C@@H]1NC(=O)[C@@H]2C[C@@H](O)CN2C(=O)[C@H]([C@@H](C)O)NC(=O)[C@H](CCCCN)NC(=O)[C@H](CCC(=O)O)NC(=O)[C@H](CC(N)=O)NC(=O)CNC(=O)[C@@H]2C[C@@H](O)CN2C(=O)[C@H](CC(N)=O)NC1=O [AFPep] (cyclo(EKT[Hyp]VN[Hyp]GN))
A) 8

---

protocol description: 8-day repeat-dose study, tolerability (blood chemistry, hematology, adverse events) in tumor-bearing dogs
Assay type: in vivo, dog
condition summary: Dog 4; Post: 30 min after last injection on day 8; 10 mg s.c. once daily for 8 days
Where a SMILES comes first, the peptide text is derived from it. [ ]: non-standard residue; d: D form. Hyp = O=C(O)[C@@H]1C[C@@H](O)CN1
readout type: Cholesterol (mg/dL)
Use mg/dL as the unit, but write only the number.

Q) // query Cholesterol value for entry CC(C)[C@@H]1NC(=O)[C@@H]2C[C@@H](O)CN2C(=O)[C@H]([C@@H](C)O)NC(=O)[C@H](CCCCN)NC(=O)[C@H](CCC(=O)O)NC(=O)[C@H](CC(N)=O)NC(=O)CNC(=O)[C@@H]2C[C@@H](O)CN2C(=O)[C@H](CC(N)=O)NC1=O [AFPep] (cyclo(EKT[Hyp]VN[Hyp]GN))
A) 451

---

protocol description: 8-day repeat-dose study, AFPep blood levels in tumor-bearing dogs
Type: in vivo, dog
condition summary: female, diverse breeds, dog, blood, sc, 10 mg, Mean ± S.D. of 6 tumor-bearing dogs; 30 min after 10 mg s.c.; first day; read-out: AFPep blood level, Day 1 Post-Treatment
Where a SMILES comes first, the peptide text is derived from it. [ ]: non-standard residue; d: D form. Hyp = O=C(O)[C@@H]1C[C@@H](O)CN1
readout type: level at 0.5 h

Q) // query level at 0.5 h value for entry CC(C)[C@@H]1NC(=O)[C@@H]2C[C@@H](O)CN2C(=O)[C@H]([C@@H](C)O)NC(=O)[C@H](CCCCN)NC(=O)[C@H](CCC(=O)O)NC(=O)[C@H](CC(N)=O)NC(=O)CNC(=O)[C@@H]2C[C@@H](O)CN2C(=O)[C@H](CC(N)=O)NC1=O [AFPep] (cyclo(EKT[Hyp]VN[Hyp]GN))
A) 3600 ng/mL

---

protocol description: 8-day repeat-dose study, tolerability (blood chemistry, hematology, adverse events) in tumor-bearing dogs
Format: in vivo, dog
condition summary: Dog 1; Post: 30 min after last injection on day 8; 10 mg s.c. once daily for 8 days
Where a SMILES comes first, the peptide text is derived from it. [ ]: non-standard residue; d: D form. Hyp = O=C(O)[C@@H]1C[C@@H](O)CN1
readout type: Phosphorous (mg/dL)
Use mg/dL as the unit, but write only the number.

Q) // query Phosphorous value for entry CC(C)[C@@H]1NC(=O)[C@@H]2C[C@@H](O)CN2C(=O)[C@H]([C@@H](C)O)NC(=O)[C@H](CCCCN)NC(=O)[C@H](CCC(=O)O)NC(=O)[C@H](CC(N)=O)NC(=O)CNC(=O)[C@@H]2C[C@@H](O)CN2C(=O)[C@H](CC(N)=O)NC1=O [AFPep] (cyclo(EKT[Hyp]VN[Hyp]GN))
A) 4

---

protocol description: 8-day repeat-dose study, tolerability (blood chemistry, hematology, adverse events) in tumor-bearing dogs
Assay type: in vivo, dog
condition summary: Dog 1; Post: 30 min after last injection on day 8; 10 mg s.c. once daily for 8 days
Where a SMILES comes first, the peptide text is derived from it. [ ]: non-standard residue; d: D form. Hyp = O=C(O)[C@@H]1C[C@@H](O)CN1
readout type: GGT (U/L)
Use U/L as the unit, but write only the number.

Q) // query GGT value for entry CC(C)[C@@H]1NC(=O)[C@@H]2C[C@@H](O)CN2C(=O)[C@H]([C@@H](C)O)NC(=O)[C@H](CCCCN)NC(=O)[C@H](CCC(=O)O)NC(=O)[C@H](CC(N)=O)NC(=O)CNC(=O)[C@@H]2C[C@@H](O)CN2C(=O)[C@H](CC(N)=O)NC1=O [AFPep] (cyclo(EKT[Hyp]VN[Hyp]GN))
A) 4

---

protocol description: 8-day repeat-dose study, tolerability (blood chemistry, hematology, adverse events) in tumor-bearing dogs
Assay type: in vivo, dog
condition summary: Dog 6; Post: 30 min after last injection on day 8; 10 mg s.c. once daily for 8 days
Where a SMILES comes first, the peptide text is derived from it. [ ]: non-standard residue; d: D form. Hyp = O=C(O)[C@@H]1C[C@@H](O)CN1
readout type: Globulin (g/dL)
Use g/dL as the unit, but write only the number.

Q) // query Globulin value for entry CC(C)[C@@H]1NC(=O)[C@@H]2C[C@@H](O)CN2C(=O)[C@H]([C@@H](C)O)NC(=O)[C@H](CCCCN)NC(=O)[C@H](CCC(=O)O)NC(=O)[C@H](CC(N)=O)NC(=O)CNC(=O)[C@@H]2C[C@@H](O)CN2C(=O)[C@H](CC(N)=O)NC1=O [AFPep] (cyclo(EKT[Hyp]VN[Hyp]GN))
A) 3

These data points were gathered from paper PMC9913752.
